These measurements were taken from ChEMBL document CHEMBL4706663.

# TEST: Toxicity in […] cells xenografted KM mouse assessed as survival rate at 27 mg/kg, ig administered every day for 10 days relative to control
# Format: organism-based
# MEASUREMENT_CONTEXT: in vivo, po, time 10 day
RESULT_TYPE: survival at 240 h

## Task Item CC(C)[C@@H](C)/C=C/[C@@H](C)[C@H]1CC[C@H]2C3=CC=C4C[C@@H](O)CC[C@]4(C)[C@H]3CC[C@]12C [ERGOSTEROL] : provide survival at 240 h
## Result 100%

* * *

# TEST: Toxicity in […] cells xenografted KM mouse assessed as survival rate at 240 mg/kg, ig administered every day for 10 days relative to control
# Format: organism-based
# MEASUREMENT_CONTEXT: in vivo, po, time 10 day
RESULT_TYPE: survival at 240 h (%)
Use % as the unit, but write only the number.

## Task Respond only with survival at 240 h recorded for CC(C)[C@@H](C)/C=C/[C@@H](C)[C@H]1CC[C@H]2C3=CC=C4C[C@@H](O)CC[C@]4(C)[C@H]3CC[C@]12C
## Result 100

* * *

# TEST: Toxicity in human H22 cells xenografted KM mouse assessed as survival rate at 20 mg/kg, ig administered every day for 10 days relative to control
# MEASUREMENT_CONTEXT: in vivo, po
RESULT_TYPE: survival at 240 h (%)
Write the value in % as a bare number.

## Task Please list survival at 240 h recorded for the compound O=P1(N(CCCl)CCCl)NCCCO1 (stereo unspecified) [CYCLOPHOSPHAMIDE ANHYDROUS]
## Result 100

* * *

# TEST: Toxicity in […] cells xenografted KM mouse assessed as survival rate at 80 mg/kg, ig administered every day for 10 days relative to control
# Format: organism-based
# MEASUREMENT_CONTEXT: in vivo, po, time 10 day
RESULT_TYPE: survival at 240 h (%)
Number only, in %; omit the unit.

## Task Look up and report measured survival at 240 h for this entry: CC(C)[C@@H](C)/C=C/[C@@H](C)[C@H]1CC[C@H]2C3=CC=C4C[C@@H](O)CC[C@]4(C)[C@H]3CC[C@]12C
## Result 100

* * *

# TEST: Toxicity in human Lewis lung cancer cells xenografted BALB/c mouse assessed as survival rate at 20 mg/kg, ig administered every day for 10 days (reference value: 100%)
# MEASUREMENT_CONTEXT: in vivo, po
RESULT_TYPE: survival at 240 h (%)
# output: bare number, implied unit %

## Task Given O=P1(N(CCCl)CCCl)NCCCO1 (stereo unspecified) [CYCLOPHOSPHAMIDE ANHYDROUS] , respond with its survival at 240 h.
## Result 100
